All figures here come from patent US8802864B2.

molecular target: FAS (Homo sapiens (Human), UniProt P49327); conditions: inhibition of FAS; tested by one of the two FAS assays; value from at least one experiment or the average of multiple experiments
Sequence (P49327 whole entry): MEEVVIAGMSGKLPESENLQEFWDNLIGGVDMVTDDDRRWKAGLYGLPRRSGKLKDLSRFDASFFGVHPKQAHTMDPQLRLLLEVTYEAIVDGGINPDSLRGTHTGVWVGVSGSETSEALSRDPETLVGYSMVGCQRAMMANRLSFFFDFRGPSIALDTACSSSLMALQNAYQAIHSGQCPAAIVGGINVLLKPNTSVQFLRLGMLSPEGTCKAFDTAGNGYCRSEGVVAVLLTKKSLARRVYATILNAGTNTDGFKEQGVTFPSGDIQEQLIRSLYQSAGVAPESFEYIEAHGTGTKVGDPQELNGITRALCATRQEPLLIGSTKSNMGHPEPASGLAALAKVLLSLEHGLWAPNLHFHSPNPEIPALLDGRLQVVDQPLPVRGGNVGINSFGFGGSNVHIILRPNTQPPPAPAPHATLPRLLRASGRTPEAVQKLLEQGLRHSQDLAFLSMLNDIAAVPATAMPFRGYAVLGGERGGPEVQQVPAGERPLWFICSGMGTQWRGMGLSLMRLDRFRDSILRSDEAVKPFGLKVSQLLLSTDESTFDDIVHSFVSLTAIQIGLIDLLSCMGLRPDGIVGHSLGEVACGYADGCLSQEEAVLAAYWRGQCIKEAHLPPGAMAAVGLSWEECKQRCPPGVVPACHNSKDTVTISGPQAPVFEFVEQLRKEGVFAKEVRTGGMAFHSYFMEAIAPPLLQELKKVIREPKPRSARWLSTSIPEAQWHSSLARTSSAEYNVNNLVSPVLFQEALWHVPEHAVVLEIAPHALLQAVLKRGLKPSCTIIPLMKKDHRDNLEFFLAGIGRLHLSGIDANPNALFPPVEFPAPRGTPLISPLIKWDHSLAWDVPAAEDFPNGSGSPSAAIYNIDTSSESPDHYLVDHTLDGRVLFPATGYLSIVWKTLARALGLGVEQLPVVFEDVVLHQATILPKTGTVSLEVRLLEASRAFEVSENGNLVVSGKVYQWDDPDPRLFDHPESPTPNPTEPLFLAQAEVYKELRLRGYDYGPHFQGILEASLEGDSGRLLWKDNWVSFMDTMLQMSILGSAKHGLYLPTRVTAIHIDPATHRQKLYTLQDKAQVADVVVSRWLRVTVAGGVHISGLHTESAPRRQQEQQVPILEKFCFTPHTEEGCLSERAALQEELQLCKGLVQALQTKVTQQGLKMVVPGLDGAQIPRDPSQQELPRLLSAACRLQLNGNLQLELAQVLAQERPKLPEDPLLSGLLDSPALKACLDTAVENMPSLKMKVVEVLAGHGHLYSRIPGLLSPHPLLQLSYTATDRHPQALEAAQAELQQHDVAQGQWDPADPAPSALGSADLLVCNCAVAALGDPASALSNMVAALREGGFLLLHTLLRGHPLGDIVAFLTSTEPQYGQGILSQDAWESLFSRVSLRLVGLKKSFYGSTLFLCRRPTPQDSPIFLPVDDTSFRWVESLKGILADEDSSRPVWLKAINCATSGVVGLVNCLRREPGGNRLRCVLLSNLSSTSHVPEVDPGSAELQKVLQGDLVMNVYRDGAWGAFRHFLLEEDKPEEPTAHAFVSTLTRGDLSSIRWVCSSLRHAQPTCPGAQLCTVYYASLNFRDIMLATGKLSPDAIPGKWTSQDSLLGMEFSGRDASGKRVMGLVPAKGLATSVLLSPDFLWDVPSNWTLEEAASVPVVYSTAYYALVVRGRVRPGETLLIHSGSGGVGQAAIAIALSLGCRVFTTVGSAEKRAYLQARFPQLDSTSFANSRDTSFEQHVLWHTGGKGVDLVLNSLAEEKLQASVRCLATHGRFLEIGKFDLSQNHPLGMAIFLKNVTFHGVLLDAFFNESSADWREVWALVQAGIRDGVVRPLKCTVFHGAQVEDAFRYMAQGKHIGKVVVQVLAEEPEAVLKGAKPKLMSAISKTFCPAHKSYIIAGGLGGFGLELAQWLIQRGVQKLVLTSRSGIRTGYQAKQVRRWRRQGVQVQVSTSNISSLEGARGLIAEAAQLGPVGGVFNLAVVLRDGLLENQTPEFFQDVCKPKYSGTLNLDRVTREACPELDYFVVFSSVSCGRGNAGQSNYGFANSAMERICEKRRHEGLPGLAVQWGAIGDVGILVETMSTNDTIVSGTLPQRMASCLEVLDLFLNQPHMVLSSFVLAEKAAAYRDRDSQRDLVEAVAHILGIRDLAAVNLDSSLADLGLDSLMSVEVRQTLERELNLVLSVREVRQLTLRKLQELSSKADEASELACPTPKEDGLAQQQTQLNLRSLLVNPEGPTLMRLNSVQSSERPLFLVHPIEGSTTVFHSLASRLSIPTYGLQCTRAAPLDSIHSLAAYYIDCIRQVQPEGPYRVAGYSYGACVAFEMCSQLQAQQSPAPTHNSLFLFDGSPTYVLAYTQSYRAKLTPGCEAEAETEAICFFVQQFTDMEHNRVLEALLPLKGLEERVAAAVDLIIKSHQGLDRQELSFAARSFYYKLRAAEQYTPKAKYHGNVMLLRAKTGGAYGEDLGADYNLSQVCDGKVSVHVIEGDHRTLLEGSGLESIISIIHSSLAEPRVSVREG
readoutName: pIC50
Kindly note that pIC50 refers to -log10 of the concentration in mol/L and answer with the value alone.

# input Output reported pIC50 of the molecule CC(=O)Nc1ccc(-c2ccc(-n3c(C[C@@H]4CCN(C(=O)C5CC5)C4)n[nH]c3=O)c(F)c2)cc1 [Example 158] on FAS (Homo sapiens (Human), UniProt P49327).
# output 6.40

# input Output reported pIC50 of the molecule Cn1cnc2cc(-c3ccc(-n4c(C[C@@H]5CCN(C(=O)C6CC6)C5)n[nH]c4=O)cc3)ccc21 [Example 23] on FAS (Homo sapiens (Human), UniProt P49327).
# output 7.89

# input Output reported pIC50 of the molecule O=C(C1CC1)N1CC[C@@H](Cc2n[nH]c(=O)n2-c2ccc(-c3ccc4c(c3)OCO4)cc2)C1 [Example 38] on FAS (Homo sapiens (Human), UniProt P49327).
# output 6.80
